// reported change in vivo at 50 mg/kg for each item listed
system: HDL cholesterol; assay: in vivo standard pharmacological test procedure measuring elevation of HDL cholesterol levels in cholesterol/cholic acid-fed rats; design: species or system Male Sprague-Dawley rats; settings: Rattus norvegicus, feed or water, 192 h, serum, dose 50 mg/kg mixed in diet, eight days of treatment, read-out: HDL Cholesterol Level Increase (%)
Value expressed in %; do not type the unit.

Look up change in vivo at 50 mg/kg for this compound: `Cc1cc(Cl)ccc1N1CCCN(C)C1=S`
86

Look up change in vivo at 50 mg/kg for this compound: `S=C1NCCCN1c1ccccc1`
20

Look up change in vivo at 50 mg/kg for this compound: `CCN1CCCN(c2ccc(Cl)cc2C)C1=S`
152

Look up change in vivo at 50 mg/kg for this compound: `Cc1cc(Cl)ccc1N1CCCNC1=S`
86
